Recorded values, source PubChem BioAssay (EPA / NIEHS).

- measurement.target: Aryl hydrocarbon receptor (Homo sapiens) (UniProt P35869)
- Sequence (P35869 whole entry, looked up): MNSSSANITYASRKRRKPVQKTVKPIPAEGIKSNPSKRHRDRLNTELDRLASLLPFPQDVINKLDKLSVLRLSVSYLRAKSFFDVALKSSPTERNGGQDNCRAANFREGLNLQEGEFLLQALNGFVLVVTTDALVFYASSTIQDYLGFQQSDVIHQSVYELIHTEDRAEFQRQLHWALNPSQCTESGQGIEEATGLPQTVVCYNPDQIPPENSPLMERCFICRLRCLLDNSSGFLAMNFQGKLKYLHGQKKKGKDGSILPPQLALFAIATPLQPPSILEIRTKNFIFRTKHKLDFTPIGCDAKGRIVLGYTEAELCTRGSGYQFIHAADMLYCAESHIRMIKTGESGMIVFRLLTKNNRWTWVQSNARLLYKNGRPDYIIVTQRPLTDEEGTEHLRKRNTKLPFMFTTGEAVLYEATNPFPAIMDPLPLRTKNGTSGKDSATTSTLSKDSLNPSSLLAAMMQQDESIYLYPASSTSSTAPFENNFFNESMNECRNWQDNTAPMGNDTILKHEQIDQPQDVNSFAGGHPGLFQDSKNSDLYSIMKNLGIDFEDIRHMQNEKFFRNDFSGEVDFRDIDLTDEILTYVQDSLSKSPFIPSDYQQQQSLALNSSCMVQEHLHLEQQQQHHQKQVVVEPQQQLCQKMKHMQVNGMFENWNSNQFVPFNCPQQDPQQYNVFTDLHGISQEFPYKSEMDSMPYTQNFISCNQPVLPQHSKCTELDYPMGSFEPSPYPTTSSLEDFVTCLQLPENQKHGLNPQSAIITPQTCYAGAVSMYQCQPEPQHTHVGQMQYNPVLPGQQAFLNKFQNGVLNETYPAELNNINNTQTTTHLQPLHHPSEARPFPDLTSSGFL
- method.notes: ATG_Ahr_CIS: Attagene CIS-FACTORIAL HepG2 Assay for human Aryl Hydrocarbon Receptor (Ahr) (AID 2282930)
- run.parameters: HepG2 AhR cis-factorial reporter transcription; actives raise or lower the signal
Calls of active or inactive are those of the source. How the source made its calls: active means hit-call score of the fitted dose curve at least 0.9, where 1 is the maximum; inactive means score below 0.9.
Choose the fitting class; nothing outside Y = active, N = inactive is accepted.

Examples with answers:
Assay outcome for "C=C1[C@H]2CC[C@@H]3[C@H]2C(C)(C)CCC[C@]13C" : what was it?
N

Input "CCCCCCCCc1ccc(Nc2ccc(CCCCCCCC)cc2)cc1"
N

Input "Nc1ncn([C@@H]2O[C@H](CO)[C@@H](O)[C@H]2O)c(=O)n1"
N

Input "CCCCCC/C=C/C=O"
N

Input "O=C1c2cccc(O)c2C(=O)c2c(O)cc(CO)cc21"
N

***
Assay outcome for "NC(=O)c1ccccc1O" : what was it?
N

Input "Cc1cc(=O)n(-c2ccccc2)n1C"
N

Input CCCCC(CC)COC(=O)c1ccccc1 (stereo not given)
N

Input "C[C@]12CCC(=O)C=C1CC[C@@H]1[C@@H]2C(=O)C[C@@]2(C)[C@H]1CC[C@]2(O)C(=O)CO"
N

Input CC(=O)OCC(C)OC(C)=O (stereo not given)
N
